System: 143B.TK^- cells
Method: cells
Type: cell-based
Recorded Conditions: Homo sapiens, 240 h, w pyruvate (100 µg/ml), w uridine (50 µg/ml); chloramphenicol 50 nM - 300 µM; 10 days
pIC50: −log10 of the molar value.
Parameter Measured: pIC50

Molecule	Reported Measurement
O=C(N[C@H](CO)[C@H](O)c1ccc([N+](=O)[O-])cc1)C(Cl)Cl [chloramphenicol]	< 3.52

The origin of these recorded values is patent EP3027213B1.
